# SYSTEM NAME: MRP2 (ABCC2) (Homo sapiens, UniProt Q92887);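 note: Inside-out membrane vesicles from Sf9 insect cells expressing human MRP2, measuring uptake of the estradiol glucuronide substrate, expressed as percent of untreated control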
# Sequence (Q92887 whole entry): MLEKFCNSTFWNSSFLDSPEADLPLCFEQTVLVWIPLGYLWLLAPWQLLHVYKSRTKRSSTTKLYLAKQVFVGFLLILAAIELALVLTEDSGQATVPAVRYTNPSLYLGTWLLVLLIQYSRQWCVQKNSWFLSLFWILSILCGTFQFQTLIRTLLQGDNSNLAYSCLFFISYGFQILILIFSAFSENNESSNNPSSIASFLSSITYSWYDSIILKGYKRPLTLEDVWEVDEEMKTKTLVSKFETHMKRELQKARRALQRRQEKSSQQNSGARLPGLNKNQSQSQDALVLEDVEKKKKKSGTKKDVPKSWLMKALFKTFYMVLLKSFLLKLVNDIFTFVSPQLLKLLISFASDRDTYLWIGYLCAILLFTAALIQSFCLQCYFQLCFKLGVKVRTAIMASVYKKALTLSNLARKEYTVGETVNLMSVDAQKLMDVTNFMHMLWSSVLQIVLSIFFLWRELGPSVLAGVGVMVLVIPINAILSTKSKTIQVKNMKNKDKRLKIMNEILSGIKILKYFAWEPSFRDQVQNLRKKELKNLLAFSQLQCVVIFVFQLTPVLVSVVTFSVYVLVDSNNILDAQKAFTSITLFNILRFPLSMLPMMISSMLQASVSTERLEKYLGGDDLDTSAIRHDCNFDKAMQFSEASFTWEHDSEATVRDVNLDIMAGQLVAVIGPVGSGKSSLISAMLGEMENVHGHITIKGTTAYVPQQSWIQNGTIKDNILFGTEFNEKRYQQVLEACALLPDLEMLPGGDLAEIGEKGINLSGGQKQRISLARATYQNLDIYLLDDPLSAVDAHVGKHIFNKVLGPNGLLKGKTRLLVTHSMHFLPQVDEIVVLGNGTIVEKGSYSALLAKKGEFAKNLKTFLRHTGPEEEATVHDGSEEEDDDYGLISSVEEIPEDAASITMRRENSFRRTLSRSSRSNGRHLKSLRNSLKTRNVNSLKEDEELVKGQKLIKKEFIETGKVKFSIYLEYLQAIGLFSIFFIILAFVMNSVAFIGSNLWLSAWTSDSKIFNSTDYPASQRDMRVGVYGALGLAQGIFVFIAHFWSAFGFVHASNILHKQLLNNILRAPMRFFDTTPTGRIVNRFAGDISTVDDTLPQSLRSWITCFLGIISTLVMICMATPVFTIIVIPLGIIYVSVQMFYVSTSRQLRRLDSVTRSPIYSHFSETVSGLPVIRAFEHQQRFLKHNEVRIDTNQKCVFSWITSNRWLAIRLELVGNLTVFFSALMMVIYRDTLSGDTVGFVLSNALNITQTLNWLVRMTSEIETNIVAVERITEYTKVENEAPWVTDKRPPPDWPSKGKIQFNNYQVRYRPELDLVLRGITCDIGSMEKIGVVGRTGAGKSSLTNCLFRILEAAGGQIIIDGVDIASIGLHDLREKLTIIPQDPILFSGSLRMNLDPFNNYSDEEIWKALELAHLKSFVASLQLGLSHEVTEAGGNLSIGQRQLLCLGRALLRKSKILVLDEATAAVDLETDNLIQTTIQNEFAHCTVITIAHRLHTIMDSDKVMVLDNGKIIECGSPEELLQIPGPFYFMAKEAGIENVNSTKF
# PROTOCOL: in vitro
# PROTOCOL CONDITIONS: sf9
# Description: Effect on human MRP2-mediated estradiol-17-beta-glucuronide transport in Sf9 cells inverted membrane vesicles relative to control
MEASURE: activity (%)

COc1cc(Cc2cnc(N)nc2N)cc(OC)c1OC [TRIMETHOPRIM]	107
CCCCc1oc2ccccc2c1C(=O)c1cc(I)c(OCCN(CC)CC)c(I)c1 [AMIODARONE]	66
CN(Cc1cnc2nc(N)nc(N)c2n1)c1ccc(C(=O)N[C@@H](CCC(=O)O)C(=O)O)cc1 [METHOTREXATE]	130
CN(C)[C@@H]1C(O)=C(C(N)=O)C(=O)[C@@]2(O)C(O)=C3C(=O)c4c(O)cccc4[C@@](C)(O)[C@H]3C[C@@H]12 [TETRACYCLINE]	110
CN(C)CCCN1c2ccccc2Sc2ccc(Cl)cc21 [CHLORPROMAZINE]	58
N[C@@H](CCC(=O)N[C@@H](CS)C(=O)NCC(=O)O)C(=O)O [GLUTATHIONE]	116
CC(C)(C)NC[C@H](O)COc1nsnc1N1CCOCC1 [TIMOLOL]	91
CNCCCC12CCC(c3ccccc31)c1ccccc12 [MAPROTILINE]	56
CN1CCC[C@H]1c1cccnc1 [NICOTINE]	101

Recorded values, source ChEMBL document CHEMBL1150338.
